These entries and their values trace back to paper PMC5540273.

# System: CAMK2A
# particulars: concentration: 1 μM, replicates: in singlicate; n = 1;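 note: KINOMEscan kinase panel screen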
test.readout: %Inh (%)
The reply should contain only the number, in %.

Field: example entries. Status: answers known.
mol_smiles=Fc1cccc(COc2ccc(Nc3ncnc4cc[nH]c34)cc2Cl)c1 units_of_measure=% result_number=27
mol_smiles=CNc1nccc(-c2c(-c3ccc(F)cc3)ncn2CCCN2CCOCC2)n1 units_of_measure=% result_number=8
mol_smiles=COc1ccc(-c2nc3n(c2-c2ccncc2)CCC3)cc1 units_of_measure=% result_number=0

[in] Write down %Inh measured for item O=C(Nc1ccccc1)Nc1ccc(Oc2ccc3nccn3n2)cc1
[out] 0

[in] Write down %Inh measured for item Cn1ccc2ncnc(Oc3ccc(NC(=O)Nc4cccnc4)c(Cl)c3)c21
[out] 0

[in] Write down %Inh measured for item CC(C)(C)c1ccc(-n2cnc3c(N)ncnc32)cc1
[out] 0

====

# System: TLK1
# particulars: concentration: 1 μM, replicates: in singlicate; n = 1
Item-by-item account of %Inh
Answer format reminder: number followed by unit.

Field: example entries. Status: answers known.
compound=Nc1nc(-c2ccc3c(N)n[nH]c3c2)cc(N2CCC[C@@H](C(=O)Nc3ccccc3)C2)n1.O=C(O)C(F)(F)F.O=C(O)C(F)(F)F test_readout=%Inh result=15%
compound=Fc1ccc(Nc2nccc(-c3c(-c4ccc(Cl)cc4)nn4ncccc34)n2)cc1F test_readout=%Inh result=0%
compound=CNc1nccc(-c2c(-c3ccc(F)cc3)ncn2C2CCN(C)CC2)n1 test_readout=%Inh result=0%
compound=COc1ccc(-c2oc3ncnc(N)c3c2-c2ccc(OC)cc2)cc1 test_readout=%Inh result=0%
compound=Cc1cc(N2CCC(NS(=O)(=O)c3ccc(F)cc3)CC2)nc(Nc2cccc(C#N)c2)n1.O=C(O)C(F)(F)F test_readout=%Inh result=5%
compound=Fc1cccc(COc2ccc(Nc3ncnc4sc(-c5ccc[nH]5)cc34)cc2Cl)c1 test_readout=%Inh result=25%

[in] Write down %Inh measured for item Fc1cccc(COc2ccc(Nc3ncnc4nn5ccccc5c34)cc2Cl)c1
[out] 0%

[in] Write down %Inh measured for item CCn1c(-c2ccncc2)nc2cnccc21
[out] 0%

[in] Write down %Inh measured for item CSc1ccc(NC2=C(c3ccccc3Cl)C(=O)NC2=O)cc1
[out] 35%

[in] Write down %Inh measured for item CN1CCC(n2cnc(-c3ccc(F)cc3)c2-c2ccnc(NC3CCNCC3)n2)CC1
[out] 11%

[in] Write down %Inh measured for item COc1ccc(Nc2nccc(N3CCC(NC(=O)Nc4ccc5c(c4)OCO5)C3)n2)cc1 (stereo not drawn)
[out] 18%

[in] Write down %Inh measured for item Cn1ccc2ncnc(Oc3ccc(NC(=O)Nc4cccnc4)c(Cl)c3)c21
[out] 13%

[in] Write down %Inh measured for item COc1ccc(NC(=O)Nc2ccc(C)c(-c3ccc(C(=O)Nc4ccncc4)cc3)c2)cc1
[out] 19%

[in] Write down %Inh measured for item COc1cc2c(Nc3cccc(NC(=O)c4ccccc4)c3)ncnc2cc1OCCCN1CCOCC1
[out] 0%

[in] Write down %Inh measured for item Nc1n[nH]c2nnc(-c3ccccc3)cc12
[out] 15%

[in] Write down %Inh measured for item CC(C)N1CCC(n2cnc(-c3ccc(F)cc3)c2-c2ccnc(N)n2)CC1
[out] 5%

[in] Write down %Inh measured for item COc1cc2ncnc(Nc3ccc(OCc4ccccc4Br)c(Cl)c3)c2cc1OC.Cl
[out] 0%

[in] Write down %Inh measured for item Nc1nc(-c2cccnc2)c(-c2ccnc3ccccc23)s1
[out] 0%

[in] Write down %Inh measured for item Cc1ccc(O)cc1Nc1cc(C(F)(F)F)nc2ccc(-c3ccncc3)cc12
[out] 21%

[in] Write down %Inh measured for item NC(=O)c1sc(-n2cnc3ccccc32)cc1OCc1ccccc1F
[out] 0%

[in] Write down %Inh measured for item CS(=O)(=O)CCNCc1nc(-c2ccc3ncnc(Nc4ccc(OCc5cccc(F)c5)c(Cl)c4)c3c2)cs1.Cl
[out] 22%

====

Item-by-item account of %Inh
# Tested on: CLK3
# particulars: concentration: 1 μM, replicates: in singlicate; n = 1
The reply should contain only the number, in %.

molecule=N#Cc1ccc(Oc2ccc(Nc3ncnc4cc[nH]c34)cc2Cl)cc1 units_of_measure=% result_number=3
molecule=CSc1ccc(NC2=C(c3ccccc3Cl)C(=O)NC2=O)cc1 units_of_measure=% result_number=43
molecule=CCc1nc(-c2cccc(C)c2)c(-c2ccnc(NC(=O)c3ccccc3)c2)s1 units_of_measure=% result_number=0
molecule="CCCc1ccc(S(=O)(=O)NC2CCN(c3ccnc(Nc4ccc(OC)cc4)n3)C2)cc1 (stereo not drawn)" units_of_measure=% result_number=0
molecule=Cl.Fc1ccccc1COc1ccc(Nc2ncnc3ccc(-c4nnc(C(F)(F)F)o4)cc23)cc1Cl units_of_measure=% result_number=4
molecule=Nc1nc(-c2ccc3c(N)n[nH]c3c2)cc(N2CCCCC2)n1 units_of_measure=% result_number=8

[in] Write down %Inh measured for item Nc1nccc2scc(-c3ccc4c(c3)CCN4C(=O)Cc3cc(F)ccc3F)c12
[out] 93.5

[in] Write down %Inh measured for item Fc1cccc(COc2ccc(Nc3ncnc4nn5ccccc5c34)cc2Cl)c1
[out] 0

[in] Write down %Inh measured for item O=C(c1ccc(-c2cc(-c3c[nH]nc3-c3ccccn3)ccn2)cc1)N1CCCC1
[out] 0

[in] Write down %Inh measured for item Cc1ccc(C)c(NC(=O)NCCNc2ccnc(Nc3ccc(F)cc3)n2)c1
[out] 0

====

# Test system: HPK1
# particulars: concentration: 1 μM, replicates: in singlicate; n = 1
test.readout: %Inh (%)
The reply should contain only the number, in %.

Field: example entries. Status: answers known.
compound=CSc1nn2c(=O)cc(N3CCOCC3)nc2n1Cc1cccc(Cl)c1Cl units_of_measure=% result_number=25
compound=CNc1nccc(-c2c(-c3ccc(F)cc3)ncn2C2CCN(C)CC2)n1 units_of_measure=% result_number=0
compound=c1ccc(-c2ccc3c(-c4ccnc(Nc5ccc6c(c5)OCCO6)n4)cnn3n2)cc1 units_of_measure=% result_number=47
compound=Fc1cccc(COc2ccc(Nc3ncnc4nn5ccccc5c34)cc2Cl)c1 units_of_measure=% result_number=22
compound=Cl.c1ccc(Cn2ccc3cc(Nc4ncnc5ccccc45)ccc32)cc1 units_of_measure=% result_number=31

[in] Write down %Inh measured for item Clc1ccc(-c2cc(-c3c[nH]nc3-c3ccccn3)ccn2)cc1
[out] 24

[in] Write down %Inh measured for item Cc1ccc(C)c(NC(=O)NCCNc2ccnc(Nc3ccc(F)cc3)n2)c1
[out] 28

[in] Write down %Inh measured for item COc1ccc(Nc2nccc(N3CCC(NC(=O)c4cccc(NC(C)=O)c4)C3)n2)cc1 (stereo not drawn)
[out] 43

[in] Write down %Inh measured for item CC(C)(C)OC(=O)NC1CCCN(c2cc(-c3ccc4c(N)n[nH]c4c3)nc(N)n2)C1 (stereo not drawn)
[out] 26

====

# Test system: YES
# Construct: gene YES1
# particulars: concentration: 1 μM, replicates: in singlicate; n = 1
# %Inh >= 10% gives 1 (yes), anything below gives 0 (no)

Consider the worked cases shown below.
mol_smiles=Nc1n[nH]c2nnc(-c3ccccc3)cc12 target=YES label_class="1 (yes)"
mol_smiles=COC(=O)c1c(-c2ccccc2)c2cc(Cl)ccc2c(=O)n1Cc1ccc(S(C)(=O)=O)cc1 target=YES label_class="0 (no)"
mol_smiles=Clc1cccc(-c2nc(Nc3ccncc3)c3ccccc3n2)c1 target=YES label_class="1 (yes)"
mol_smiles=Cc1ccc(NC(=O)c2cccc(C#N)c2)cc1-c1ccc(C(=O)Nc2ccncc2)cc1 target=YES label_class="1 (yes)"

Turning now to a further compound:
[in] Check if %Inh >= 10% (inclusive). Item: Cl.O=S(=O)(c1cccc(F)c1)c1ccc(Nc2ncnc3cc(Br)sc23)cc1Cl
[out] 1 (yes)

====

# Tested on: CSNK2A2
# particulars: concentration: 1 μM, replicates: in singlicate; n = 1
Item-by-item account of %Inh
The reply should contain only the number, in %.

Field: example entries. Status: answers known.
mol_smiles=Nc1nc(-c2cccnc2)c(-c2ccnc3ccccc23)s1 units_of_measure=% result_number=1
mol_smiles=COc1cc2ncnc(Nc3ccc(OCc4ccccc4Br)c(Cl)c3)c2cc1OC.Cl units_of_measure=% result_number=0
mol_smiles=C[C@@H]1CCN(C(=O)CO)C[C@@H]1N(C)c1ncnc2[nH]ccc12 units_of_measure=% result_number=0
mol_smiles=CC(=O)Nc1n[nH]c2ncc(-c3ccccc3)cc12 units_of_measure=% result_number=25
mol_smiles=FC(F)(F)c1ccc(-c2nn3ncccc3c2-c2ccnc(Nc3cccc(C(F)(F)F)c3)n2)cc1 units_of_measure=% result_number=0

[in] Write down %Inh measured for item O=C(Nc1ccccc1)Nc1ccc(Oc2ccc3nccn3n2)cc1
[out] 0

[in] Write down %Inh measured for item CC(C)N1CCC(n2cnc(-c3ccc(F)cc3)c2-c2ccnc(N)n2)CC1
[out] 0

[in] Write down %Inh measured for item CCc1nc(-c2cccc(N(C)S(=O)(=O)c3ccccc3)c2)c(-c2ccnc(Nc3ccc(N4CCN(C(C)=O)CC4)nc3)n2)s1
[out] 6

[in] Write down %Inh measured for item O=C(NCCCN1CCCC1=O)c1cnc(NCc2cc(Cl)ccc2Cl)nc1NC1CCNCC1
[out] 7
